Hey, just so you know, these numbers are from paper PMC9998502.

target_system: human kappa receptor (Homo sapiens, UniProt P41145)
Construct: expressed in transfected cells; host or cells: CHO cells stably co-expressing Gαqi5
Sequence (P41145 whole entry): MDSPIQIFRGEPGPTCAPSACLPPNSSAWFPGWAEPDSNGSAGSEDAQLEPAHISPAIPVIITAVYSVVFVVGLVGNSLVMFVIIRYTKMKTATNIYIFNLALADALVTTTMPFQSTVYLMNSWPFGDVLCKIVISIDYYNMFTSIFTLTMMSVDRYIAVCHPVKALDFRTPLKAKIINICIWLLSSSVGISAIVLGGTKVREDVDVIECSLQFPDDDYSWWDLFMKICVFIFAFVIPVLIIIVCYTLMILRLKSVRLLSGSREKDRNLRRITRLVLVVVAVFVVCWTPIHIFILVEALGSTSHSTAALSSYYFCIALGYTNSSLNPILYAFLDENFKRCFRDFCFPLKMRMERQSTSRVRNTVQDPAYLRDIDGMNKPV
assay_name: Calcium mobilization assay, CHO kappa cells expressing Gαqi5
Type: cell-based
reported_conditions: intrinsic activity, Emax ratio to standard agonist dynorphin A; inactive = inactive up to 10 µM
assay_endpoint: Kappa α± SEM

| compound | target_system | assay_endpoint | observed_result |
| --- | --- | --- | --- |
| Cc1cc(O)cc(C)c1C[C@H](N)C(=O)N1CCC[C@H]1C(=O)NC[C@@H](Cc1cccc2ccccc12)C(=O)N[C@@H](Cc1ccccc1)C(N)=O [analog 11, Dmt-Pro-(R)-β ^ 2 -1-Nal-Phe-NH2] | human kappa receptor (Homo sapiens, UniProt P41145) | Kappa α± SEM | inactive |
| Cc1cc(O)cc(C)c1C[C@H](N)C(=O)NC[C@@H](C)C(=O)N[C@@H](Cc1ccccc1)C(=O)N[C@@H](Cc1ccccc1)C(N)=O [analog 7, Dmt-(R)-β ^ 2 -Ala-Phe-Phe-NH2] | human kappa receptor (Homo sapiens, UniProt P41145) | Kappa α± SEM | inactive |
| NC(=O)[C@H](Cc1ccccc1)NC(=O)[C@@H](CNC(=O)[C@@H]1CCCN1C(=O)[C@@H](N)Cc1ccc(O)cc1)Cc1cccc2ccccc12 [analog 10, Tyr-Pro-(R)-β ^ 2 -1-Nal-Phe-NH2] | human kappa receptor (Homo sapiens, UniProt P41145) | Kappa α± SEM | inactive |

###

Quick reference: pKi of the listed items.
target_system: human recombinant kappa opioid receptor (Homo sapiens, UniProt P41145)
assay_name: Radioligand binding, [3H]U-69593 displacement, CHO cell membranes
pKi: −log10 of the molar value. Non-standard residues stand in square brackets, D forms with d. Residues, ends and D or L forms follow the SMILES beside them. Dmt = Cc1cc(O)cc(C)c1C[C@H](N)C(=O)O; d(β3hA) = C[C@@H](N)CC(=O)O

| compound | target_system | pKi |
| --- | --- | --- |
| Cc1cc(O)cc(C)c1C[C@H](N)C(=O)N1CCC[C@@H](C(=O)N[C@@H](Cc2ccccc2)C(=O)N[C@@H](Cc2ccccc2)C(N)=O)C1 [analog 5, Dmt-(R)-Nip-Phe-Phe-NH2] | human recombinant kappa opioid receptor (Homo sapiens, UniProt P41145) | 6.25 |
| Cc1cc(O)cc(C)c1C[C@H](N)C(=O)N1CCC[C@H]1C(=O)NC[C@@H](Cc1cccc2ccccc12)C(=O)N[C@@H](Cc1ccccc1)C(N)=O [analog 11, Dmt-Pro-(R)-β ^ 2 -1-Nal-Phe-NH2] | human recombinant kappa opioid receptor (Homo sapiens, UniProt P41145) | < 6.00 |
| Cc1cc(O)cc(C)c1C[C@H](N)C(=O)N[C@H](C)CC(=O)N[C@@H](Cc1ccccc1)C(=O)N[C@@H](Cc1ccccc1)C(N)=O [analog 9, Dmt-(R)-β ^ 3 -Ala-Phe-Phe-NH2] (H-[Dmt][d(β3hA)]FF-NH2; N-terminus assumed) | human recombinant kappa opioid receptor (Homo sapiens, UniProt P41145) | 6.05 |
| C[C@H](CNC(=O)[C@@H](N)Cc1ccc(O)cc1)C(=O)N[C@@H](Cc1ccccc1)C(=O)N[C@@H](Cc1ccccc1)C(N)=O [analog 6, Tyr-(R)-β ^ 2 -Ala-Phe-Phe-NH2] | human recombinant kappa opioid receptor (Homo sapiens, UniProt P41145) | < 6.00 |
| Cc1cc(O)cc(C)c1C[C@H](N)C(=O)NC[C@@H](C)C(=O)N[C@@H](Cc1ccccc1)C(=O)N[C@@H](Cc1ccccc1)C(N)=O [analog 7, Dmt-(R)-β ^ 2 -Ala-Phe-Phe-NH2] | human recombinant kappa opioid receptor (Homo sapiens, UniProt P41145) | 6.09 |
| NC(=O)[C@H](Cc1ccccc1)NC(=O)[C@@H](CNC(=O)[C@@H]1CCCN1C(=O)[C@@H](N)Cc1ccc(O)cc1)Cc1cccc2ccccc12 [analog 10, Tyr-Pro-(R)-β ^ 2 -1-Nal-Phe-NH2] | human recombinant kappa opioid receptor (Homo sapiens, UniProt P41145) | < 6.00 |
| NC(=O)[C@H](Cc1ccccc1)NC(=O)[C@H](Cc1ccccc1)NC(=O)[C@H]1CCCCN1C(=O)[C@@H](N)Cc1ccc(O)cc1 [analog 2, Tyr-(R)-Pip-Phe-Phe-NH2] | human recombinant kappa opioid receptor (Homo sapiens, UniProt P41145) | < 6.00 |
| NC(=O)[C@H](Cc1ccccc1)NC(=O)C[C@@H](Cc1cccc2ccccc12)NC(=O)[C@@H]1CCCN1C(=O)[C@@H](N)Cc1ccc(O)cc1 [analog 12, Tyr-Pro-(R)-β ^ 3 -1-Nal-Phe-NH2] | human recombinant kappa opioid receptor (Homo sapiens, UniProt P41145) | < 6.00 |

Task: Would you mind telling me what pKi value was observed for C[C@H](CC(=O)N[C@@H](Cc1ccccc1)C(=O)N[C@@H](Cc1ccccc1)C(N)=O)NC(=O)[C@@H](N)Cc1ccc(O)cc1 [analog 8, Tyr-(R)-β ^ 3 -Ala-Phe-Phe-NH2] (H-Y[d(β3hA)]FF-NH2; N-terminus assumed) ?
Output: < 6.00

Task: Would you mind telling me what pKi value was observed for NC(=O)[C@H](Cc1ccccc1)NC(=O)[C@H](Cc1ccccc1)NC(=O)[C@@H]1CCCN(C(=O)[C@@H](N)Cc2ccc(O)cc2)C1 [analog 4, Tyr-(R)-Nip-Phe-Phe-NH2] ?
Output: < 6.00

Task: Would you mind telling me what pKi value was observed for Cc1cc(O)cc(C)c1C[C@H](N)C(=O)N1CCCC[C@@H]1C(=O)N[C@@H](Cc1ccccc1)C(=O)N[C@@H](Cc1ccccc1)C(N)=O [analog 3, Dmt-(R)-Pip-Phe-Phe-NH2] ?
Output: 7.14

###

target_system: mu receptor-G protein interaction (Homo sapiens)
Sequence (P62871 whole entry): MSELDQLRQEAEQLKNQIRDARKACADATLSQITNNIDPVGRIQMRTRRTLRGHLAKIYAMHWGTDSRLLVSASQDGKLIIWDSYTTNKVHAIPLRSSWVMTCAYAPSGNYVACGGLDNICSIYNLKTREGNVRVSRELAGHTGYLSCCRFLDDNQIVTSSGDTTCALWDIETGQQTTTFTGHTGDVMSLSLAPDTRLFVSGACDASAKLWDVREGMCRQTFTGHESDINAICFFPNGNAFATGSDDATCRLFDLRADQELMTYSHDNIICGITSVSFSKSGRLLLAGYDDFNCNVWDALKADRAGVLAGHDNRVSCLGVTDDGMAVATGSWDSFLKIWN
Sequence (P35372 whole entry): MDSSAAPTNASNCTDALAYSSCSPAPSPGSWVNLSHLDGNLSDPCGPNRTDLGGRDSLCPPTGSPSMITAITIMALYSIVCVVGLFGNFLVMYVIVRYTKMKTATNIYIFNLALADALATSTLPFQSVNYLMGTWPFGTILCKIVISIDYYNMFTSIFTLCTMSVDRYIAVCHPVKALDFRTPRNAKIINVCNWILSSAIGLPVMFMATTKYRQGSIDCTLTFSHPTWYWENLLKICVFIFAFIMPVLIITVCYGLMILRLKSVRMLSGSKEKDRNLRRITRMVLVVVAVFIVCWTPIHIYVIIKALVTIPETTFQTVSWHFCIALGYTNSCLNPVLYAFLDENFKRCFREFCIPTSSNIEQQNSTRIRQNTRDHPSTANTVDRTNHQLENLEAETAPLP
assay_name: BRET mu-G protein interaction assay (membranes of SH-SY5Y cells, mu-RLuc/Gβ1-RGFP)
Non-standard residues stand in square brackets, D forms with d. Residues, ends and D or L forms follow the SMILES beside them. Dmt = Cc1cc(O)cc(C)c1C[C@H](N)C(=O)O; d(β3hA) = C[C@@H](N)CC(=O)O
Quick reference: pEC50 of the listed items.
Keep in mind that pEC50 stands for -log10 of concentration in molar terms.

Study these solved cases before continuing.
| compound | pEC50 |
| --- | --- |
| Cc1cc(O)cc(C)c1C[C@H](N)C(=O)N1CCC[C@H]1C(=O)N[C@@H](CC(=O)N[C@@H](Cc1ccccc1)C(N)=O)Cc1cccc2ccccc12 [analog 13, Dmt-Pro-(R)-β ^ 3 -1-Nal-Phe-NH2] | 8.44 |
| NC(=O)[C@H](Cc1ccccc1)NC(=O)[C@H](Cc1ccccc1)NC(=O)[C@@H]1CCCN(C(=O)[C@@H](N)Cc2ccc(O)cc2)C1 [analog 4, Tyr-(R)-Nip-Phe-Phe-NH2] | 7.95 |
| C[C@H](CNC(=O)[C@@H](N)Cc1ccc(O)cc1)C(=O)N[C@@H](Cc1ccccc1)C(=O)N[C@@H](Cc1ccccc1)C(N)=O [analog 6, Tyr-(R)-β ^ 2 -Ala-Phe-Phe-NH2] | 6.38 |
| C[C@H](CC(=O)N[C@@H](Cc1ccccc1)C(=O)N[C@@H](Cc1ccccc1)C(N)=O)NC(=O)[C@@H](N)Cc1ccc(O)cc1 [analog 8, Tyr-(R)-β ^ 3 -Ala-Phe-Phe-NH2] (H-Y[d(β3hA)]FF-NH2; N-terminus assumed) | 8.13 |
| Cc1cc(O)cc(C)c1C[C@H](N)C(=O)N1CCC[C@H]1C(=O)N[C@@H](Cc1ccccc1)C(=O)N[C@@H](Cc1ccccc1)C(N)=O | 8.51 |
| NC(=O)[C@H](Cc1ccccc1)NC(=O)[C@@H](CNC(=O)[C@@H]1CCCN1C(=O)[C@@H](N)Cc1ccc(O)cc1)Cc1cccc2ccccc12 [analog 10, Tyr-Pro-(R)-β ^ 2 -1-Nal-Phe-NH2] | 6.98 |

Task: Would you mind telling me what pEC50 value was observed for Cc1cc(O)cc(C)c1C[C@H](N)C(=O)NC[C@@H](C)C(=O)N[C@@H](Cc1ccccc1)C(=O)N[C@@H](Cc1ccccc1)C(N)=O [analog 7, Dmt-(R)-β ^ 2 -Ala-Phe-Phe-NH2] ?
Output: 8.34

Task: Would you mind telling me what pEC50 value was observed for Cc1cc(O)cc(C)c1C[C@H](N)C(=O)N[C@H](C)CC(=O)N[C@@H](Cc1ccccc1)C(=O)N[C@@H](Cc1ccccc1)C(N)=O [analog 9, Dmt-(R)-β ^ 3 -Ala-Phe-Phe-NH2] (H-[Dmt][d(β3hA)]FF-NH2; N-terminus assumed) ?
Output: 9.14

Task: Would you mind telling me what pEC50 value was observed for Cc1cc(O)cc(C)c1C[C@H](N)C(=O)N1CCC[C@@H](C(=O)N[C@@H](Cc2ccccc2)C(=O)N[C@@H](Cc2ccccc2)C(N)=O)C1 [analog 5, Dmt-(R)-Nip-Phe-Phe-NH2] ?
Output: 8.96
